Tested on: PfCRT^3D7 (Plasmodium falciparum)
Sequence (Q8IBZ9 59-398): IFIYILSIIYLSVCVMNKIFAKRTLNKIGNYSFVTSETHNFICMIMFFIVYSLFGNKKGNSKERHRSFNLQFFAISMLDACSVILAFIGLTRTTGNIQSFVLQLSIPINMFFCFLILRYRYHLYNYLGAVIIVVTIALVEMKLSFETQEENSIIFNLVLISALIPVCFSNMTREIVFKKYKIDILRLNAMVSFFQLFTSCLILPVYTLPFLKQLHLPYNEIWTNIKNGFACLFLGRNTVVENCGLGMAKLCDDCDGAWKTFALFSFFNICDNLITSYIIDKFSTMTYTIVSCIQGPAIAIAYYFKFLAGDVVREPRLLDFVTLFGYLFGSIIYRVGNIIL
Assay info: cell-based
Type: cell-based
Experimental parameters: [test solute]i = 5 mM (intracellular); PfCRT3D7 oocytes; normalised to oocyte type control; read-out: PfCRT-mediated [3H]CQ transport, trans-stimulation (% PfCRT3D7 control)
Consider the following compounds and their measured activity at 5000 µM readings.
I only need the number, in %, no unit after it.

A selection of reference data follows.
* N[C@@H](Cc1c[nH]c2ccccc12)C(=O)O [L-tryptophan] | 98
* N[C@@H](CS)C(=O)O [L-cysteine] | 98
* CC(C)C[C@H](N)C(=O)O [L-leucine] | 98
* CC(C)[C@H](N)C(=O)O [L-valine] | 96
* N[C@@H](Cc1ccccc1)C(=O)O [L-phenylalanine] | 96
* CC[C@H](C)[C@H](N)C(=O)O [L-isoleucine] | 98
* N=C(N)NCCC[C@H](N)C(=O)O [L-arginine] | 96
* NCCCC[C@H](N)C(=O)O [L-lysine] | 97
* C[C@H](N)C(=O)O [L-alanine] | 97
* N[C@@H](CCC(=O)O)C(=O)O [L-glutamic acid] | 99

Endpoint output: activity at 5000 µM of N[C@@H](Cc1c[nH]cn1)C(=O)O [L-histidine] . Value?
95

So what's the measured activity at 5000 µM for this one? NC(=O)CC[C@H](N)C(=O)O [L-glutamine]
97

State the recorded activity at 5000 µM for this entry: N[C@@H](CO)C(=O)O [L-serine]
98

What value of activity at 5000 µM has been recorded for this entry: C[C@@H](O)[C@H](N)C(=O)O [L-threonine]
97

----------
Test system: C4^Dd2 parasites
Assay info: P. falciparum proliferation assay
Type: cell-based, Plasmodium falciparum
Experimental parameters: Plasmodium falciparum, DD2, 72 h, read-out: IC50 (nM), parasite proliferation, + 1 μM VP; SEM
Reported endpoint: IC50 (nM)
Express the result in nM but write the number alone.

What value of IC50 on C4^Dd2 parasites does CCN(CC)CCCC(C)Nc1ccnc2cc(Cl)ccc12 (stereo not shown) [CQ, chloroquine, reference compound] have?
26

----------
Tested on: PfCRT^Ecu1110 (Plasmodium falciparum, UniProt Q9N623, A220S/I356L/K76T/N326D)
Sequence (Q9N623 whole entry A220S/I356L/K76T/N326D): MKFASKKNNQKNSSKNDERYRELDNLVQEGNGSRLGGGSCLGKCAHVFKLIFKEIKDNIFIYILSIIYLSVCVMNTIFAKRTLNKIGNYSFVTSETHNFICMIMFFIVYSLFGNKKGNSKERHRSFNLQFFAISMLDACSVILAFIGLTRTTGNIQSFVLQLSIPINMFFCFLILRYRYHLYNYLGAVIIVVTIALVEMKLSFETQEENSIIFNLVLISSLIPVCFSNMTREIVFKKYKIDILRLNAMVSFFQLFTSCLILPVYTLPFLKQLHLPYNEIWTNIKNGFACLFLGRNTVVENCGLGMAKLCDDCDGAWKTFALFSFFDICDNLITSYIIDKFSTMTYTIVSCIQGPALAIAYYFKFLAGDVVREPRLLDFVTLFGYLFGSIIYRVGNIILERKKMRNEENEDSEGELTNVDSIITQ
Assay info: cell-based
Assay type: cell-based
Experimental parameters: [test solute]i = 5 mM (intracellular); PfCRTEcu1110 oocytes; normalised to oocyte type control
The entries below come with measured PfCRT-mediated [3H]CQ transport, trans-stimulation (% PfCRTEcu1110 control) values attached.
Please respond with the number in % PfCRTEcu1110 control and leave the unit unwritten.

• DPENFR [DR-6] = 118
• VHLTPEEK [VK-8] = 98
• HAGEYG [HG-6] = 98
• HVDDMPNA [HA-8] = 95
• VVYPWTQR [VR-8] = 97

# PfCRT-mediated [3H]CQ transport, trans-stimulation (% PfCRTEcu1110 control) lookup, item DLDDALDK [DK-8]
95

Item YFPHFDLS [YS-8] has what recorded PfCRT-mediated [3H]CQ transport, trans-stimulation (% PfCRTEcu1110 control)?
98

Fill in: PfCRT-mediated [3H]CQ transport, trans-stimulation (% PfCRTEcu1110 control) of DTSLKPIS [DS-8] is ___
127

What PfCRT-mediated [3H]CQ transport, trans-stimulation (% PfCRTEcu1110 control) value was documented for this substance, HVDPENFRL [HL-9] ?
98

The origin of these recorded values is paper PMC7413254.
